System: Pseudomonas aeruginosa
Assay: Antibacterial activity against penicillin-susceptible Pseudomonas aeruginosa ATCC 27853 incubated for 24 hrs by […]
Type: functional
Conditions: ATCC 27853, 24 h
Listed here are molecules together with their documented MIC.
MEASUREMENT KIND: MIC (µg/mL)

>  <SMILES REPR>
CC[C@H]1OC(=O)[C@H](C)C(=O)[C@H](C)[C@@H](O[C@@H]2O[C@H](C)C[C@H](N(C)C)[C@H]2O)[C@](C)(OC)C[C@@H](C)C(=O)[C@H](C)[C@@H](OC(=O)NCCNC(=O)C#Cc2ccc(Cl)cc2)[C@]1(C)O

>  <MEASUREMENT KIND>
MIC

>  <SIGN QUALIFIER>
>

>  <OBSERVED VALUE>
128

$$$$
>  <SMILES REPR>
CC[C@H]1OC(=O)[C@H](C)C(=O)[C@H](C)[C@@H](O[C@@H]2O[C@H](C)C[C@H](N(C)C)[C@H]2O)[C@](C)(OC)C[C@@H](C)C(=O)/C(C)=C/[C@]1(C)O

>  <MEASUREMENT KIND>
MIC

>  <SIGN QUALIFIER>
=

>  <OBSERVED VALUE>
64

$$$$
>  <SMILES REPR>
CC[C@H]1OC(=O)[C@H](C)[C@@H](O[C@H]2C[C@@](C)(OC)[C@@H](O)[C@H](C)O2)[C@H](C)[C@@H](O[C@@H]2O[C@H](C)C[C@H](N(C)C)[C@H]2O)[C@](C)(O)C[C@@H](C)CN(C)[C@H](C)[C@@H](O)[C@]1(C)O

>  <MEASUREMENT KIND>
MIC

>  <SIGN QUALIFIER>
=

>  <OBSERVED VALUE>
16

$$$$
>  <SMILES REPR>
CC[C@H]1OC(=O)[C@H](C)[C@@H](OC(=O)Cc2cccnc2)[C@H](C)[C@@H](O[C@@H]2O[C@H](C)C[C@H](N(C)C)[C@H]2O)[C@](C)(OC)C[C@@H](C)C(=O)[C@H](C)[C@@H](OC(=O)NCCNC(=O)/C=C/c2ccco2)[C@]1(C)O

>  <MEASUREMENT KIND>
MIC

>  <SIGN QUALIFIER>
>

>  <OBSERVED VALUE>
128

$$$$
>  <SMILES REPR>
CC[C@H]1OC(=O)[C@H](C)[C@@H](OC(=O)Cc2cccnc2)[C@H](C)[C@@H](O[C@@H]2O[C@H](C)C[C@H](N(C)C)[C@H]2O)[C@](C)(OC)C[C@@H](C)C(=O)[C@H](C)[C@@H](OC(=O)NCCNC(=O)/C=C/c2ccc([N+](=O)[O-])cc2)[C@]1(C)O

>  <MEASUREMENT KIND>
MIC

>  <SIGN QUALIFIER>
=

>  <OBSERVED VALUE>
128

$$$$
>  <SMILES REPR>
CC[C@H]1OC(=O)[C@H](C)[C@@H](OC(=O)Cc2cccnc2)[C@H](C)[C@@H](O[C@@H]2O[C@H](C)C[C@H](N(C)C)[C@H]2O)[C@](C)(OC)C[C@@H](C)C(=O)[C@H](C)[C@@H](OC(=O)NCCNC(=O)C#Cc2cccc3ccccc23)[C@]1(C)O

>  <MEASUREMENT KIND>
MIC

>  <SIGN QUALIFIER>
>

>  <OBSERVED VALUE>
128

$$$$
>  <SMILES REPR>
CC[C@H]1OC(=O)[C@H](C)[C@@H](OC(=O)Cc2cccnc2)[C@H](C)[C@@H](O[C@@H]2O[C@H](C)C[C@H](N(C)C)[C@H]2O)[C@](C)(OC)C[C@@H](C)C(=O)[C@H](C)[C@@H](OC(=O)NCCNC(=O)c2ccc([N+](=O)[O-])cc2N)[C@]1(C)O

>  <MEASUREMENT KIND>
MIC

>  <SIGN QUALIFIER>
=

>  <OBSERVED VALUE>
64

$$$$
>  <SMILES REPR>
CC[C@H]1OC(=O)[C@H](C)[C@@H](OC(=O)Cc2cccnc2)[C@H](C)[C@@H](O[C@@H]2O[C@H](C)C[C@H](N(C)C)[C@H]2O)[C@](C)(OC)C[C@@H](C)C(=O)/C(C)=C/[C@]1(C)O

>  <MEASUREMENT KIND>
MIC

>  <SIGN QUALIFIER>
=

>  <OBSERVED VALUE>
128

$$$$

Reference source for all entries: ChEMBL document CHEMBL4118255
